# Tested on: VA-ES-BJ tumor spheroid viability
# test.protocol: Anticancer human tumor VA-ES-BJ cell line growth inhibition;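 further: spheroids exposed to compounds for seven days; percent of DMSO vehicle control viability so 100% = untreated growth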
# test.conditions: second compound 0.000949 µM; first compound 10 µM; stronger effect = lower value; spheroids with HUVEC and MSC
Let's look at some molecules and their measured viability, T/C.

molecule	target.of.assay	units.label	viability, T/C
Cc1cc(C)c(CNC(=O)c2cc(-c3ccc(CN4CCOCC4)cc3)cc3c2cnn3C2CCCC2)c(=O)[nH]1 + COc1cc2c(cc1O)CCNC21CSC2c3c(OC(C)=O)c(C)c4c(c3C(COC1=O)N1C(O)C3Cc5cc(C)c(OC)c(O)c5C(C21)N3C)OCO4	VA-ES-BJ tumor spheroid viability	%	1.68
CC1COCCN1c1cc(-c2ccnn2C)c2ccnc(-c3ccn[nH]3)c2n1 (centres undefined) + COc1cc2c(cc1O)CCNC21CSC2c3c(OC(C)=O)c(C)c4c(c3C(COC1=O)N1C(O)C3Cc5cc(C)c(OC)c(O)c5C(C21)N3C)OCO4	VA-ES-BJ tumor spheroid viability	%	0.13
CC(C)n1c(=O)n(C)c2cnc3cc(F)c(-c4ccc(OCCCN5CCCCC5)nc4)cc3c21 + COc1cc2c(cc1O)CCNC21CSC2c3c(OC(C)=O)c(C)c4c(c3C(COC1=O)N1C(O)C3Cc5cc(C)c(OC)c(O)c5C(C21)N3C)OCO4	VA-ES-BJ tumor spheroid viability	%	1.02
COc1ccc([C@@H](O)c2cc(-c3ncnc4cc(N5CCOCC5)ccc34)c(F)cc2Cl)nn1 + COc1cc2c(cc1O)CCNC21CSC2c3c(OC(C)=O)c(C)c4c(c3C(COC1=O)N1C(O)C3Cc5cc(C)c(OC)c(O)c5C(C21)N3C)OCO4	VA-ES-BJ tumor spheroid viability	%	2.57

---

# Tested on: VA-ES-BJ tumor spheroid viability
# test.protocol: Anticancer human tumor VA-ES-BJ cell line growth inhibition; active = viability on the fitted dose curve at most 10% of control; inactive = the rest;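 further: spheroids exposed to compounds for seven days; percent of DMSO vehicle control viability so 100% = untreated growth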
# test.conditions: second compound 10 µM; first compound 10 µM; spheroids with HUVEC and MSC
Outcomes: active, inactive

> print(dat)
                                   compound                    target.of.assay  class.assignment
1  COc1ccc([C@@H](O)c2cc(-c3ncnc4cc(N5CCOCC5)ccc34)c(F)cc2Cl)nn1 + Cn1nnc2c(C(N)=O)ncn2c1=O  VA-ES-BJ tumor spheroid viability            active
2  [2H]c1nc(C)nc([2H])c1-c1cc(NC[C@@H](C)c2cccc3c(C(=O)NC)ccnc23)ncn1 + Cn1nnc2c(C(N)=O)ncn2c1=O  VA-ES-BJ tumor spheroid viability          inactive
3  Cc1cc(C)c(CNC(=O)c2cc(-c3ccc(CN4CCOCC4)cc3)cc3c2cnn3C2CCCC2)c(=O)[nH]1 + Cn1nnc2c(C(N)=O)ncn2c1=O  VA-ES-BJ tumor spheroid viability          inactive
4  COc1cc(C)[nH]c(=O)c1CN1CCc2c(Cl)cc(C(OC)C3COC3)c(Cl)c2C1=O (stereo unspecified) + Cn1nnc2c(C(N)=O)ncn2c1=O  VA-ES-BJ tumor spheroid viability          inactive
5  CC(C)n1c(=O)n(C)c2cnc3cc(F)c(-c4ccc(OCCCN5CCCCC5)nc4)cc3c21 + Cn1nnc2c(C(N)=O)ncn2c1=O  VA-ES-BJ tumor spheroid viability          inactive
6  CC1COCCN1c1cc(-c2ccnn2C)c2ccnc(-c3ccn[nH]3)c2n1 (stereo unspecified) + Cn1nnc2c(C(N)=O)ncn2c1=O  VA-ES-BJ tumor spheroid viability            active
